These entries and their values trace back to patent US8591943B2.

biological target: recombinant His-CHK1 (Homo sapiens, UniProt O14757); assay: CHK1 In Vitro Kinase Assay
Sequence (O14757 1-265 limits assumed): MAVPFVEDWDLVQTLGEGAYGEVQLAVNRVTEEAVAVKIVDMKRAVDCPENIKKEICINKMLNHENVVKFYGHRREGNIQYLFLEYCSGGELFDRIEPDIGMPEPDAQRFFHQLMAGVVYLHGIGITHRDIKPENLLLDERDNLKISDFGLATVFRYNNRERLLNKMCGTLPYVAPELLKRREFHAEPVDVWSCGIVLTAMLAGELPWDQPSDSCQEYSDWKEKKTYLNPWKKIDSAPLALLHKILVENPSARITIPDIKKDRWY
quantity.measured: IC50

- molecule: "CS(=O)(=O)N1CCC(c2nc3c(-c4cnc5ccccc5c4)cnn3c(N)c2Br)CC1"
  quantity.measured: "IC50"
  result: "> 5 µM"
- molecule: "Nc1c(Br)c(CN2CCOCC2)nc2c(-c3cnc4ccccc4c3)cnn12"
  quantity.measured: "IC50"
  result: "> 5 µM"
- molecule: "COC(=O)C1CCC(c2cc(N)n3ncc(-c4cnn(C)c4)c3n2)CN1 (centres unmarked)"
  quantity.measured: "IC50"
  result: "1 to 5 µM"

# value lookup — system recombinant His-CHK1 (Homo sapiens, UniProt O14757), readout IC50, item `Nc1c(Br)c(N2CCC(CC(=O)O)CC2)nc2c(-c3cnc4ccccc4c3)cnn12`
22 µM

Any idea what IC50 came out for `CS(=O)(=O)NC(=O)C[C@H]1CC[C@@H](c2nc3c(-c4cnc5ccccc5c4)cnn3c(N)c2Br)CC1` on recombinant His-CHK1 (Homo sapiens, UniProt O14757)?
> 5 µM

For recombinant His-CHK1 (Homo sapiens, UniProt O14757), provide IC50 of `Nc1c(Br)c([C@H]2CC[C@H]3C(=O)NC(=O)N3C2)nc2c(-c3cnc4ccccc4c3)cnn12` please.
> 5 µM

Give recorded IC50 with recombinant His-CHK1 (Homo sapiens, UniProt O14757) for the following molecule: `Nc1c(Br)c(N2CCc3[nH]cnc3C2)nc2c(-c3cnc4ccccc4c3)cnn12`
> 5 µM

Lab note: need IC50 with recombinant His-CHK1 (Homo sapiens, UniProt O14757) for entry N#CCC1CCC(c2nc3c(-c4cnc5ccccc5c4)cnn3c(N)c2Br)CC1 (centres unmarked) , please look it up.
> 5 µM
